# System: M14 melanoma
# TEST_SUMMARY: NCI-60 one-dose screen, 48 h (100 = growth as untreated, 0 = no growth, -100 = all killed)
# CONDITION: 10 µM unless noted
Compounds without any hit were thinned out: in the full panel of roughly 83,000, 20% have a hit. Calls of active or inactive are those of the source. The calls were made as follows: active = growth percent below 10; inactive = the rest.
Measured growth by item

{"COMPOUND": "O=C(Nc1ccc(Cl)cc1)c1cc2ccccc2cc1OP(=O)(O)O", "growth": "31.9% (inactive)"}
{"COMPOUND": "Brc1ccc(Nc2nc3ccccc3nc2Nc2ccc(Br)cc2)cc1", "growth": "-60.7% (active)"}
{"COMPOUND": "COc1ccc(-c2cn[nH]c2-c2ccc(OC)c(O)c2)cc1", "growth": "64.2% (inactive)"}
{"COMPOUND": "COC(=O)/C(=C\\c1c(-c2ccccc2)[nH]c2ccccc12)S(C)(=O)=O", "growth": "14.9% (inactive)"}
{"COMPOUND": "Cn1nc(C(F)(F)F)c(-c2ccc(Cl)c(C(F)(F)F)c2)c1-c1ccc(OCc2ccc(Cl)cc2)cc1O", "growth": "35.4% (inactive)"}
{"COMPOUND": "COc1cccc(C(=O)Cn2cc(/C=C(\\C#N)S(=O)(=O)c3ccccc3)c3ccccc32)c1", "growth": "86.5% (inactive)"}
{"COMPOUND": "Cc1ccc(NCCNCC(O)CO)c2c(=O)c3ccccc3sc12 (stereo not given)", "growth": "-71% (active)"}
{"COMPOUND": "Clc1ncccc1Nc1ccc2nnc(-c3ccncc3)n2n1", "growth": "98.6% (inactive)"}
{"COMPOUND": "O=C(/C=C/c1cccc(Cl)c1)OCc1ccc2cc1OCC#C/C=C\\C#CCO2", "growth": "103% (inactive)"}
{"COMPOUND": "Cc1ccc(Cn2c(N3CCC(C(=O)NCc4cccs4)CC3)nc3ccccc32)cc1", "growth": "31.5% (inactive)"}
{"COMPOUND": "O=C(O)CCCN1C(=O)C2C3CCC(C3)C2C1=O (stereo not given)", "growth": "105% (inactive)"}
{"COMPOUND": "CCN1C(=O)N(CC)C2Nn3c(s/c(=C4\\C(=O)N(C(C)C)c5ccccc54)c3=O)=NC21 (stereo not given)", "growth": "21.9% (inactive)"}
{"COMPOUND": "O=S(=O)(c1ccccc1)n1cc2c(c1-c1ccccc1)CCc1sc(Nc3ccccc3)nc1-2", "growth": "87.8% (inactive)"}
{"COMPOUND": "Cn1c2c(c(=O)[nH]c1=O)NC1=C(C(=O)c3ccccc31)C1(C=C(O)c3ccccc31)N2 (stereo not given)", "growth": "96.8% (inactive)"}
{"COMPOUND": "CC(C)CCOc1ccc(-c2n[nH]c(C(F)(F)F)c2-c2cncc(C#N)c2)c(O)c1", "growth": "22.5% (inactive)"}
{"COMPOUND": "Clc1ccc(-c2nnc(COc3ccc(C4=NNC(c5ccco5)C4)cc3)o2)cc1 (stereo not given)", "growth": "88% (inactive)"}
{"COMPOUND": "COc1ccc(/C(C#N)=C/c2nc3c(N4CCOCC4)nc(Cl)nc3n2C)cc1OC", "growth": "-49.1% (active)"}
{"COMPOUND": "COC(=O)[C@H](NC(=O)C1(C)CCC[C@]2(C)[C@H]3C[C@H]4C(C(C)C)=C[C@]3(CC[C@@H]12)[C@@H]1C(=O)CCC(=O)[C@@H]14)C(C)C (stereo not given in full)", "growth": "102% (inactive)"}
{"COMPOUND": "O=C(N=Nc1c(O)[nH]c2ccccc12)c1oc2ccccc2c1CN1CCN(c2ccccc2)CC1", "growth": "-8.59% (active)"}
{"COMPOUND": "CCOC(=O)C1(C(=O)OCC)N=C(c2ccccc2)C=C1c1ccccc1", "growth": "90.5% (inactive)"}
